This collection of values is drawn from ChEMBL document CHEMBL1201862.

molecules and their reported GI50
- System: SK-MEL-2
- assayProcedure: NCI tumour cell line growth inhibition, 48 h
Active and inactive are the calls of the source. Cut-off read from the data, not from the text of the source: active = GI50 up to about 1.1 µM and inactive = higher.

[
  {
    "molecule": "O=C1CCCC/C1=C1\\C(=O)Nc2cc(F)ccc21",
    "GI50": "> 100 µM (inactive)"
  },
  {
    "molecule": "COc1ccc2cc(CNCCCN3CCN(CCCNCc4ccc5cc(OC)ccc5c4)CC3)ccc2c1",
    "GI50": "1.93 µM (inactive)"
  },
  {
    "molecule": "COc1cc(OC)c(C2c3cc4c(cc3OC(N3CCCC3)C2C)OCO4)c(OC)c1 (stereo not given)",
    "GI50": "18.7 µM (inactive)"
  },
  {
    "molecule": "Nc1ccc2nc(NCc3ccc(F)cc3)cnc2c1",
    "GI50": "> 100 µM (inactive)"
  },
  {
    "molecule": "O=C(CSSCC(=O)OCCS(=O)(=O)Nc1ccc(Br)cc1)OCCS(=O)(=O)Nc1ccc(Br)cc1",
    "GI50": "12.5 µM (inactive)"
  },
  {
    "molecule": "CC(C)(C)/C(=N\\Nc1nc2ccccc2[nH]1)c1ccccn1",
    "GI50": "> 100 µM (inactive)"
  },
  {
    "molecule": "COC1=C(N=[N+]=[N-])C(=O)c2ncccc2C1=O",
    "GI50": "18.6 µM (inactive)"
  },
  {
    "molecule": "CC(C)(C)OCC1NC(=O)[C@@H]2Cc3c([nH]c4ccccc34)C(C3CCCCC3)N2C1=O (stereo not given in full)",
    "GI50": "20.7 µM (inactive)"
  },
  {
    "molecule": "O=S(=O)(O)c1ccc2cc(/N=N/c3c(O)ccc4ccccc34)ccc2c1",
    "GI50": "> 100 µM (inactive)"
  },
  {
    "molecule": "CCN(CC)CCOc1ccc(C(O)(Cc2ccc(OC)cc2)c2ccccc2)cc1 (stereo not given)",
    "GI50": "14.9 µM (inactive)"
  }
]

###

- Test system: MDA-MB-435
- assayProcedure: NCI tumour cell line growth inhibition, 48 h
Activity calls are given as the source filed them. No stated cut-off is given here; in the data, active = GI50 up to about 1.1 µM and inactive = higher.

[
  {
    "molecule": "O=C(N/N=C\\c1cccc2c([N+](=O)[O-])cccc12)Nc1ccccc1",
    "GI50": "9.29 µM (inactive)"
  },
  {
    "molecule": "Cc1nc2c(=S)n(C)ncc2[nH]1",
    "GI50": "> 100 µM (inactive)"
  },
  {
    "molecule": "O=C1c2ccccc2C(=O)c2sc(Nc3ccccc3C(F)(F)F)nc21",
    "GI50": "4.82 µM (inactive)"
  },
  {
    "molecule": "CCc1nnc2sc(-c3ccc(-c4ccc(Cl)cc4Cl)o3)nn12",
    "GI50": "> 100 µM (inactive)"
  },
  {
    "molecule": "COC(=O)c1cccc(COc2ccc([N+](=O)[O-])cc2Cl)c1",
    "GI50": "> 100 µM (inactive)"
  },
  {
    "molecule": "CC12CCC3c4ccc(O)cc4CCC3C1C/C(=N\\O)C2O (stereo unspecified)",
    "GI50": "> 100 µM (inactive)"
  },
  {
    "molecule": "c1ccc2c(c1)CC1c3[nH]c4ccccc4c3CCN21 (stereo unspecified)",
    "GI50": "> 10 µM (inactive)"
  },
  {
    "molecule": "Cc1ccc(-c2ccc(Nc3c4ccccc4nc4ccccc34)cc2)cn1",
    "GI50": "4.43 µM (inactive)"
  },
  {
    "molecule": "COc1cccc(C2c3cc4c(cc3OC(C)(N3CCCC3)C2C)OCO4)c1O (stereo unspecified)",
    "GI50": "1.63 µM (inactive)"
  },
  {
    "molecule": "CC(C)(C)OCC1NC(=O)[C@@H]2Cc3c([nH]c4ccccc34)C(C3CCCCC3)N2C1=O (stereo partly specified)",
    "GI50": "16 µM (inactive)"
  },
  {
    "molecule": "OC(COc1cccc2ccccc12)CN1CCOCC1 (stereo unspecified)",
    "GI50": "> 100 µM (inactive)"
  },
  {
    "molecule": "O=CC(NC(=O)N(CCCl)N=O)C(O)C(O)C(O)CO (stereo unspecified)",
    "GI50": "774 µM (inactive)"
  },
  {
    "molecule": "CC(=O)c1ccccc1NP(=O)(c1ccccc1)c1ccccc1",
    "GI50": "38.7 µM (inactive)"
  },
  {
    "molecule": "CSC1SCC2C(=O)N(C)C(C(C)C)C(=O)OCC(NC(=O)c3cnc4ccccc4n3)C(=O)NC(C)C(=O)N(C)C1C(=O)N(C)C(C(C)C)C(=O)OCC(NC(=O)c1cnc3ccccc3n1)C(=O)NC(C)C(=O)N2C (stereo unspecified)",
    "GI50": "0.00105 µM (active)"
  },
  {
    "molecule": "CCCC(=O)Nc1cc(/C=C/C(=O)N2CC(CCl)c3ccc(N)cc32)n(C)c1 (stereo unspecified)",
    "GI50": "0.256 µM (active)"
  },
  {
    "molecule": "COc1cccc(-c2cccc(SC)n2)n1",
    "GI50": "26.4 µM (inactive)"
  },
  {
    "molecule": "O=C(CN1C(=O)c2ccccc2C1=O)C(O)CN1C(=O)c2ccccc2C1=O (stereo unspecified)",
    "GI50": "34.1 µM (inactive)"
  },
  {
    "molecule": "COC1(OC)CC(CO)(CNc2nc(N)nc(Cl)c2/C=N\\O)C1",
    "GI50": "31.5 µM (inactive)"
  },
  {
    "molecule": "O=C1c2ccccc2-c2nc(-c3cccs3)cc3c2c1nc1ccccc13",
    "GI50": "2.01 µM (inactive)"
  },
  {
    "molecule": "CCOC(=O)N1c2ccccc2N(C(=O)OCC)C1CC(=O)/C=C/c1ccccc1",
    "GI50": "2.74 µM (inactive)"
  },
  {
    "molecule": "CC1(C)CN(CC(=O)O)CC(Cc2ccc(OCC(=O)O)cc2)N(CC(=O)O)CC(C)(C)SS1 (stereo unspecified)",
    "GI50": "> 100 µM (inactive)"
  }
]

###

- System: T47D
- assayProcedure: NCI tumour cell line growth inhibition, 48 h
Active and inactive are the calls of the source. No stated cut-off is given here; in the data, active = GI50 up to about 1.1 µM and inactive = higher.
measureName: GI50

[
  {
    "molecule": "COC(=O)c1cccc(COc2ccc([N+](=O)[O-])cc2Cl)c1",
    "systemTested": "T47D",
    "readoutValue": "> 100 µM (inactive)"
  },
  {
    "molecule": "CSC12c3cc(C)n(-c4ccccc4)c3CC(C)(C)CN1C(=O)C2Oc1ccccc1 (stereo unspecified)",
    "systemTested": "T47D",
    "readoutValue": "> 100 µM (inactive)"
  },
  {
    "molecule": "Cc1c2c(OCCN3CCCCC3)nn(C)c(=O)c2c(C)n1-c1ccccc1",
    "systemTested": "T47D",
    "readoutValue": "41.2 µM (inactive)"
  },
  {
    "molecule": "CSCCC(NCc1c(O)ccc2ccc(=O)oc12)C(=O)O (stereo unspecified)",
    "systemTested": "T47D",
    "readoutValue": "> 100 µM (inactive)"
  },
  {
    "molecule": "CCCCC(=O)Oc1ccc2c(C)cc(=O)oc2c1",
    "systemTested": "T47D",
    "readoutValue": "> 100 µM (inactive)"
  },
  {
    "molecule": "Nc1nc(Cl)cc(NCC2(CO)CCC(Cc3ccccc3)C2)n1 (stereo unspecified)",
    "systemTested": "T47D",
    "readoutValue": "6.5 µM (inactive)"
  },
  {
    "molecule": "O=CC(NC(=O)N(CCCl)N=O)C(O)C(O)C(O)CO (stereo unspecified)",
    "systemTested": "T47D",
    "readoutValue": "679 µM (inactive)"
  },
  {
    "molecule": "NCCCN(CCCN(C(=O)Nc1ccccc1)c1ccccc1)C(=O)Nc1ccccc1",
    "systemTested": "T47D",
    "readoutValue": "28.2 µM (inactive)"
  },
  {
    "molecule": "CC[C@@]1(C)CCC2c3ccc(O)cc3CC[C@H]2C1C (stereo partly specified)",
    "systemTested": "T47D",
    "readoutValue": "18.1 µM (inactive)"
  },
  {
    "molecule": "COc1cc2c(/C=C3/C(=O)N(C)c4ccc(O)cc43)c(Cl)[nH]c2cc1C",
    "systemTested": "T47D",
    "readoutValue": "3.41 µM (inactive)"
  },
  {
    "molecule": "CCOC(=O)CCC(NC(=O)c1ccc(N2CCN(c3c(C)nc(N)nc3N)CC2)cc1)C(=O)OCC (stereo unspecified)",
    "systemTested": "T47D",
    "readoutValue": "> 88.9 µM (inactive)"
  }
]
